Could you please report measured EC50 for the items listed next?
# assay-system: human FSH receptor (Homo sapiens, UniProt P23945)
# Construct: expressed in transfected cells; host or cells: Chinese Hamster Ovary (CHO) cells, stably transfected; cotransfected with CRE/promoter-firefly luciferase reporter
# Sequence (P23945 18-695): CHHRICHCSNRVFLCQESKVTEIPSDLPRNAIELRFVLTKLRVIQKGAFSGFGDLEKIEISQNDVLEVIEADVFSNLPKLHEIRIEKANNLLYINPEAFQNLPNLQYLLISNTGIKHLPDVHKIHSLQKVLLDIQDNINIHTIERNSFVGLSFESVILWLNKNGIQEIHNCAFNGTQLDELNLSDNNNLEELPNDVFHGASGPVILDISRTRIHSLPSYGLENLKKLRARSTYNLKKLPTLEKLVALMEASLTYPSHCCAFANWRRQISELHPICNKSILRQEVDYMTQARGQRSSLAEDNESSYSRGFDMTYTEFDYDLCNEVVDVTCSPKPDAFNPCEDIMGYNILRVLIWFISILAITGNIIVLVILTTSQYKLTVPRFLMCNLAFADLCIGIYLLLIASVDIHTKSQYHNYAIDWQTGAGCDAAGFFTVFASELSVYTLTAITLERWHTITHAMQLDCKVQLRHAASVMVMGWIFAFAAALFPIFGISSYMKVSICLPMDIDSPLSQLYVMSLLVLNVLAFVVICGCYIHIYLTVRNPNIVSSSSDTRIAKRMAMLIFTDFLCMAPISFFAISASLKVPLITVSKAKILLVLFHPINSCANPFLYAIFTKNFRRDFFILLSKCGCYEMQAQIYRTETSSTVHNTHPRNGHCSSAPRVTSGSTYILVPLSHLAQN
# protocol-summary: Agonistic activity at the human FSH receptor expressed in CHO cells (CRE-luciferase reporter)
# Type: cell-based
# run-parameters: CHO cells stably transfected with the human FSH receptor and a CRE/luciferase reporter; 4 hours of incubation; pEC50 is -logEC50; read-out: hFSHRago (CHO luc) pEC50 (converted)
Numbers only, in nM.

Reference set (2 entries):
[[record]]
molecule = "COc1cc2c(cc1-c1cnn(C)c1)-c1c(-c3cccs3)c3c(n1CC2)C(=O)N(C(C)(C)C)CCC3 [4h]"
observed = 64.6

[[record]]
molecule = "COc1cc2c(cc1-c1cnccn1)-c1c(-c3cccs3)c3c(n1CC2)C(=O)N(C(C)(C)C)CCC3 [4i]"
observed = 13.8


Fill in EC50 for each of the 2 molecules listed.
1. COc1cc2c(cc1[C@@H](O)[C@H](O)CO)-c1c(-c3cccs3)c3c(n1CC2)C(=O)N(C(C)(C)C)CCCC3 [21i]
2. COc1cc2c(cc1-c1cccnc1)-c1c(-c3cccs3)c3c(n1CC2)C(=O)N(C(C)(C)C)CCSC3 [9k]

Result:
5.25
0.316
